The reported numbers originate from the supplement of paper PMC8285479.

# key: entry, value: normalised cell viability
# System: NCI-H1944
# Assay Comment: normalised cell viability (NPI; 0 = phenylarsine oxide control, 1 = DMSO control) (fraction of DMSO control); higher = more viable cells (less compound toxicity)
# Assay Setup: glucocorticoid arm: hydrocortisone 2.75 uM pre-treated 2 days and continued; compound 1 µM; 6 days
Where a name gives a salt, the structure may show the parent alone. In all, about 1,900 compounds were measured (“normalised cell viability (NPI; 0 = phenylarsine oxide control, 1 = DMSO control)”: median about 1, lowest 2% from about 0.039 on). Only a selection was taken, and the lowest values are over-represented in it overall.

Cc1ccccc1/C=C/C1=NCCN1 [Metrazoline oxalate]    1.01
CNc1ncnc2c1ncn2[C@H]1C[C@H](OP(=O)(O)O)[C@@H](COP(=O)(O)O)O1    1
CN(C)CCC(c1ccc(Br)cc1)c1ccccn1 (single isomer, unassigned; (+)) [(+)-Brompheniramine maleate]    1.05
CC(NC(=O)Cc1cc(F)cc(F)c1)C(=O)NC1C(=O)N(C)c2ccccc2-c2ccccc21 (centres undefined)    0.983
COC[C@H](NC(=O)c1cnc(C)s1)C(=O)N[C@@H](COC)C(=O)N[C@@H](Cc1ccccc1)C(=O)[C@@]1(C)CO1 [Oprozomib (ONX 0912)]    0.7

Suppose we examine the compound O=C(/C=C/c1ccc(CN(CCO)CCc2c[nH]c3ccccc23)cc1)NO [LAQ824 (Dacinostat)] ; what normalised cell viability value has been reported? 0.0151

Same thing, different compound: CC1CN(S(=O)(=O)c2cccc3cnccc23)CCN1 (centres undefined) 0.993

Again, but for O=C1c2c(O)ccc(O)c2C(=O)c2c(NCCNCCO)ccc(NCCNCCO)c21 [Mitoxantrone dihydrochloride] 0.145

====

# System: NCI-H1944;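 note: CTB read-out in 384-well plates, triplicate wells, NPI normalised per plate against 1 µM phenylarsine oxide (0) and 0.1% DMSO (1) controls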
# Assay Comment: normalised cell viability (NPI; 0 = phenylarsine oxide control, 1 = DMSO control) (fraction of DMSO control); NCI-H1944 is a non-small cell lung cancer line; higher = more viable cells (less compound toxicity)
# Assay Setup: glucocorticoid arm: vehicle; compound 1 µM; 6 days
The full ranking holds about 1,900 compounds; the median of “normalised cell viability (NPI; 0 = phenylarsine oxide control, 1 = DMSO control)” is about 1, and the lowest 2% start at about 0.039. Only a selection was taken, and the lowest values are over-represented in it overall.
Measured normalised cell viability, listed per entry for reference.
Quick one: just the number, no unit, thanks!

Consider the reported normalised cell viability for these molecules:
Cc1ccc(NC(=O)c2ccc(CN3CCN(C)CC3)cc2)cc1Nc1nccc(-c2cccnc2)n1    0.996
Clc1ccc(C(c2ccc(Cl)cc2)[n+]2ccn(CC(OCc3ccc(Cl)cc3Cl)c3ccc(Cl)cc3Cl)c2)cc1 (configuration not stated) [Calmidazolium chloride]    1
Nc1ccccc1NC(=O)c1ccc(CNC(=O)OCc2cccnc2)cc1 [Entinostat]    0.348
CNCc1ccc(C)c(NC(=O)c2ccc(Nc3nc(-c4ccccc4)c4ccccc4n3)cc2)c1    0.991

I'm curious: which normalised cell viability was measured for CNC(=N)NCCC[C@H](N)C(=O)O [NG-Monomethyl-L-arginine acetate] tested on NCI-H1944? 0.988

What do you get for CC(NC(=O)C(O)c1cc(F)cc(F)c1)C(=O)NC1C(=O)N(C)c2ccccc2-c2ccccc21 (configuration not stated) ? 0.989

What do you get for CCCCC#Cc1nc(N)c2ncn([C@@H]3O[C@H](C(=O)NCC)[C@@H](O)[C@H]3O)c2n1 ? 1.01

And what about the molecule CC(=O)Nc1ccc(C(=O)Nc2ccccc2N)cc1 ? 0.983

Ok, now Cc1cc(NC(=O)c2cccc(NC(=O)/C=C/CN(C)C)c2)ccc1Nc1nccc(-c2cccnc2)n1 0.959

Please do the same for Cc1c(F)ccc(C(=O)Nc2cc([N+](=O)[O-])ccc2N2CCN(C)CC2)c1Cl as well. 0.996

Also need Cc1ccc(NC(=O)c2ccc(CN3CCN(C)CC3)cc2)cc1Nc1nccc(-c2cccnc2)n1 [Imatinib (Gleevec)] , thanks. 1.01

Note, next up: CC(=O)Nc1ccc(C(=O)Nc2ccccc2N)cc1 [CI994 (Tacedinaline)] 0.971
